Could you please report measured IC50 for the items listed next?
biological target: PDGFR-α (Homo sapiens, UniProt P16234); test: Kinase inhibition assay (ELISA); assay type: biochemical; conditions: 1 µM ATP
Sequence (P16234 24-1089, species assumed): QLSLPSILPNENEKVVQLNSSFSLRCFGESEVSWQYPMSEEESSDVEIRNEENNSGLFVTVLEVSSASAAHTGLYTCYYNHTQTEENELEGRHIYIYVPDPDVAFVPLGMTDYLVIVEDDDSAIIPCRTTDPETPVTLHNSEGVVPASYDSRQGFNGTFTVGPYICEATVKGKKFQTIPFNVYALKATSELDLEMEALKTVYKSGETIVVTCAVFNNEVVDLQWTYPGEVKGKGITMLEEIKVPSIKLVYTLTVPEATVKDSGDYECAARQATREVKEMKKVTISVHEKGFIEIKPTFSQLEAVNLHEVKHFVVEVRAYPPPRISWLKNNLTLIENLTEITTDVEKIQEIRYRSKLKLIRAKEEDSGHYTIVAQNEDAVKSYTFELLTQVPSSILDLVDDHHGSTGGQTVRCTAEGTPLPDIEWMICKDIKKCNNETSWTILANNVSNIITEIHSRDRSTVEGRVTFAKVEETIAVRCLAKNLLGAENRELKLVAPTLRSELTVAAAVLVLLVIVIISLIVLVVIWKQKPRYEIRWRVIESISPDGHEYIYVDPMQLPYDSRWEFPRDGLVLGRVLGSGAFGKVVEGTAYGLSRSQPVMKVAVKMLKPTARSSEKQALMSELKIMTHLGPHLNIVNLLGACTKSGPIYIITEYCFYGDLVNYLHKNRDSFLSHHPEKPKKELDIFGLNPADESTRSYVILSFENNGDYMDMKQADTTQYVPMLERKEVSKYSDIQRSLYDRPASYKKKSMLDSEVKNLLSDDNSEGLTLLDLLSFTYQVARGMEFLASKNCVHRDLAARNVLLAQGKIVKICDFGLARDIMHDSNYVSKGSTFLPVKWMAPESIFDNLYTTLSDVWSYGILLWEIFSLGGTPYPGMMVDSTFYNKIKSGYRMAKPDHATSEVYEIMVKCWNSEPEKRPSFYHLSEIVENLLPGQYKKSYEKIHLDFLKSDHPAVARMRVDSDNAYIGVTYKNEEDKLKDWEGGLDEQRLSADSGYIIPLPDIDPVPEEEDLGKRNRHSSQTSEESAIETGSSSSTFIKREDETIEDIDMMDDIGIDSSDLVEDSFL

Enquiry: Fill blank: measured IC50 of the compound Fc1ccc(-c2cnc(Nc3cccc(CC4COC5(CCNCC5)C4)n3)s2)cc1 (stereo not drawn) is ____.
Return: < 10 nM

Enquiry: Given CN1CCCC(Cc2cccc(Nc3ncc(-c4ccc(F)cc4)s3)n2)CC1 (stereo not drawn) , state its recorded IC50.
Return: > 10 nM

Enquiry: // lookup IC50 for Fc1ccc(-c2cnc(Nc3cccc(CC4CCC5CNCC54)n3)s2)cc1 (stereo not drawn)
Return: < 10 nM

Enquiry: Give the measured IC50 of c1ccc(-c2cnc(Nc3cc(C4CCCNC4)ccn3)s2)cc1 (stereo not drawn) .
Return: < 10 nM

Enquiry: Consider the compound shown here: c1ccc(-c2cnc(Nc3cc(CCC4CCCN4)ccn3)s2)cc1 (stereo not drawn) What is its recorded IC50?
Return: < 10 nM

Enquiry: Quick one: IC50 of OCCN1CCC(Cc2ccnc(Nc3ncc(-c4ccc(F)cc4)s3)c2)CC1 ?
Return: < 10 nM

Enquiry: Entry OCCN1CCC(c2cncc(Nc3ncc(-c4ccccc4)s3)n2)CC1 has what IC50?
Return: > 10 nM

Enquiry: Item under review: Cc1nc(Nc2ncc(-c3ccccc3)s2)cc(C2CCN(CCO)CC2)n1 . Reported IC50?
Return: < 10 nM

Enquiry: Query (compound): COC(=O)C1CC(Cc2ccnc(Nc3ncc(-c4ccccc4)s3)c2)CC1N (stereo not drawn) ; field requested: IC50
Return: < 10 nM

Enquiry: Which IC50 value belongs to OCCN1CCC(c2cc(Nc3ncc(-c4ccccc4)s3)ccn2)CC1 ?
Return: > 10 nM

Enquiry: What measured IC50 goes with Fc1ccc(-c2cnc(Nc3cc(CC4CNCCOC4)ccn3)s2)cc1 (stereo not drawn) ?
Return: < 10 nM

Enquiry: For Fc1ccc(-c2cnc(Nc3cc(CC4CCC5CNCC54)ccn3)s2)cc1 (stereo not drawn) , what is its reported IC50?
Return: < 10 nM

Enquiry: Could you tell me which IC50 is on file for Fc1ccc(-c2cnc(Nc3cccc(CC4CCCNCC4)n3)s2)cc1 (stereo not drawn) ?
Return: > 10 nM

Enquiry: Requested field: IC50. Item: Cc1nc(Nc2ncc(-c3ccccc3)s2)cc(C2CCN(C(=O)C(C)(C)N)CC2)n1
Return: < 10 nM

Enquiry: Entry c1ccc(-c2cnc(Nc3cc(C4CCCN4)ccn3)s2)cc1 (stereo not drawn) : reported IC50 = ?
Return: < 10 nM

The reported numbers originate from patent EP2719696A1.
